target: Retinoic acid receptor RXR-alpha (Homo sapiens) (UniProt P19793); assay: qHTS assay for small molecule antagonists of retinoid X receptor alpha signaling (AID 588546); conditions: HEK293T RXRa-UAS-bla, beta-lactamase ratio, antagonist mode;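 also: cells stimulated with 9-cis-retinoic acid as agonist; % is scaled to controls: 0 for no effect and ±100 for the full control effect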
Sequence (P19793 whole entry, looked up): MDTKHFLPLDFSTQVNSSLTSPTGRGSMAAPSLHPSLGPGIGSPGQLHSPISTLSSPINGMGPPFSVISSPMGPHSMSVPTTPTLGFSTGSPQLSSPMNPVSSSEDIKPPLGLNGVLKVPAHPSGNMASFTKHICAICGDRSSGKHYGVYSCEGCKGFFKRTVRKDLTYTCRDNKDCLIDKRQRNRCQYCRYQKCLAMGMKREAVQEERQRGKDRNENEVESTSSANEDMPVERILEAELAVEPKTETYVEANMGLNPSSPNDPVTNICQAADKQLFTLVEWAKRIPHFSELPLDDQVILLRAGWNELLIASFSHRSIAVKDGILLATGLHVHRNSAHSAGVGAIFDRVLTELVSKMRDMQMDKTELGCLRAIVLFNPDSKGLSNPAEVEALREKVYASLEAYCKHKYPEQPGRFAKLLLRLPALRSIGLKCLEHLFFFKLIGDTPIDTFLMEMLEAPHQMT
Inconclusive results are not listed.
METRIC: max response (%)
The response must be a number in % with no trailing unit.

Identify measured max response corresponding to `CS(=O)(=O)c1ccc(C(=O)C2C(=O)CCCC2=O)c([N+](=O)[O-])c1`
0.528

Identify measured max response corresponding to `O=C(O)c1cc(Oc2ccc(C(F)(F)F)cc2Cl)ccc1[N+](=O)[O-]`
-9.38

Identify measured max response corresponding to `O=C(Nc1ccccc1-c1ccc(Cl)cc1)c1cccnc1Cl`
-14.2

Identify measured max response corresponding to `O=[N+]([O-])/N=C1\NCCN1Cc1ccc(Cl)nc1`
-0.806

Identify measured max response corresponding to `O=C(O)CCCOc1ccc(Cl)cc1Cl`
-3.54
